System: H. influenzae ATCC49247
RUN DESCRIPTION: MIC, microdilution broth method (NCCLS)
Type: cell-based
TEST SETTINGS: E: H. influenzae ATCC49247, 35° C., 16-20 hours
MEASURED ATTRIBUTE: MIC (µg/mL)

These solved cases illustrate the format of a correct answer.
# MOLECULE SMILES, SYSTEM TESTED, MIC (µg/mL)
data = [
    ("CC[C@H]1OC(=O)[C@H](C)C(=O)[C@H](C)[C@@H](O[C@@H]2O[C@H](C)C[C@H](N(C)C)[C@H]2O)[C@](C)(OC(=O)NC/C=C/c2ccc(-n3cccn3)cc2F)C[C@@H](C)C(=O)[C@H](C)[C@H]2NC(=O)O[C@@]21C", "H. influenzae ATCC49247", 1),
    ("CC[C@H]1OC(=O)[C@H](C)C(=O)[C@H](C)[C@@H](O[C@@H]2O[C@H](C)C[C@H](N(C)C)[C@H]2O)[C@](C)(OC(=O)NC/C=C/c2ccc(-c3ccccn3)cc2)C[C@@H](C)C(=O)[C@H](C)[C@H]2NC(=O)O[C@@]21C", "H. influenzae ATCC49247", 4),
]

[P] CC[C@H]1OC(=O)[C@H](C)C(=O)[C@H](C)[C@@H](O[C@@H]2O[C@H](C)C[C@H](N(C)C)[C@H]2OC(C)=O)[C@](C)(OC(=O)NC/C=C/c2ccc(-c3ncccn3)cc2)C[C@@H](C)C(=O)[C@H](C)[C@H]2NC(=O)O[C@@]21C
[Q] CC[C@H]1OC(=O)[C@H](C)C(=O)[C@H](C)[C@@H](O[C@@H]2O[C@H](C)C[C@H](N(C)C)[C@H]2O)[C@](C)(OC(=O)NCc2ccc(-c3ccc([N+](=O)[O-])cn3)cc2)C[C@@H](C)C(=O)[C@H](C)[C@H]2NC(=O)O[C@@]21C
Endpoint returns whichever of P and Q has the numerically higher MIC. Let me know the label of the one you choose.
P
(P: 2 µg/mL, Q: 1 µg/mL)

* * *

Tested on: E. faecalis ATCC29212
RUN DESCRIPTION: MIC, microdilution broth method (NCCLS)
Type: cell-based
TEST SETTINGS: C: E. faecalis ATCC29212, 35° C., 16-20 hours
MEASURED ATTRIBUTE: MIC (µg/mL)

# MOLECULE, MIC / µg/mL
rows = [
    ("CC[C@H]1OC(=O)[C@H](C)C(=O)[C@H](C)[C@@H](O[C@@H]2O[C@H](C)C[C@H](N(C)C)[C@H]2O)[C@](C)(OC(=O)NC/C=C/c2cccc(-c3ncccn3)c2)C[C@@H](C)C(=O)[C@H](C)[C@H]2NC(=O)O[C@@]21C", 0.12),
    ("CCC1OC(=O)C(C)(F)C(=O)C(C)C(OC2OC(C)CC(N(C)C)C2O)C(C)(OC(=O)NCC=Cc2ccc(-c3ncccn3)cc2)CC(C)C(=O)C(C)C2NC(=O)OC12C (stereo not shown) [Compound 89]", 0.25),
]

[a] CC[C@H]1OC(=O)[C@H](C)C(=O)[C@H](C)[C@@H](O[C@@H]2O[C@H](C)C[C@H](N(C)C)[C@H]2O)[C@](C)(OC(=O)N(C)C/C=C/c2ccc(-c3ncccn3)cc2)C[C@@H](C)C(=O)[C@H](C)[C@H]2NC(=O)O[C@@]21C
[b] CC[C@H]1OC(=O)[C@H](C)C(=O)[C@H](C)[C@@H](O[C@@H]2O[C@H](C)C[C@H](N(C)C)[C@H]2O)[C@](C)(OC(=O)NCc2ccc(-n3cccn3)c(OC)c2)C[C@@H](C)C(=O)[C@H](C)[C@H]2NC(=O)O[C@@]21C
Select one: a or b . Criterion: greater recorded MIC. Selection: enter the item's label.
a

* * *

Test system: E. coli OC2605
RUN DESCRIPTION: MIC, microdilution broth method (NCCLS)
Assay type: cell-based
TEST SETTINGS: A: E. coli OC2605, 35° C., 16-20 hours
MEASURED ATTRIBUTE: MIC

# COMPOUND, MIC
records = [
    ("CC[C@H]1OC(=O)[C@H](C)C(=O)[C@H](C)[C@@H](O[C@@H]2O[C@H](C)C[C@H](N(C)C)[C@H]2O)[C@](C)(OC(=O)NCC=C(c2ccccc2)c2ccccc2)C[C@@H](C)C(=O)[C@H](C)[C@H]2NC(=O)O[C@@]21C [Compound 54]", ">16 µg/mL"),
    ("CC[C@H]1OC(=O)[C@H](C)C(=O)[C@H](C)[C@@H](O[C@@H]2O[C@H](C)C[C@H](N(C)C)[C@H]2O)[C@](C)(OC(=O)NCc2ccc(Br)cc2)C[C@@H](C)C(=O)[C@H](C)[C@H]2NC(=O)O[C@@]21C [Compound 5]", ">16 µg/mL"),
    ("CCC1OC(=O)C(C)(F)C(=O)C(C)C(OC2OC(C)CC(N(C)C)C2O)C(C)(OC(=O)NCC=Cc2ccc(-c3cnccn3)cc2)CC(C)C(=O)C(C)C2NC(=O)OC12C (stereo not shown) [Compound 101]", "8 µg/mL"),
]

Moving on to the next compound.
What value of measured MIC is listed for CC[C@H]1OC(=O)[C@H](C)C(=O)[C@H](C)[C@@H](O[C@@H]2O[C@H](C)C[C@H](N(C)C)[C@H]2O)[C@](C)(OC(=O)NCc2ccc(-c3cc[nH]n3)cc2)C[C@@H](C)C(=O)[C@H](C)[C@H]2NC(=O)O[C@@]21C [Compound 39] ?
>16 µg/mL

* * *

Test system: E. faecalis ATCC29212
RUN DESCRIPTION: MIC, microdilution broth method (NCCLS)
Type: cell-based
TEST SETTINGS: C: E. faecalis ATCC29212, 35° C., 16-20 hours
Method: Minimal inhibitory concentration (MIC) has been an indicator of in vitro antibacterial activity widely used in the art. The in vitro antimicrobial activity of the compounds was determined by the microdilution broth method following the test method from the National Committee for Clinical Laboratory Standards (NCCLS). […] Following inoculation of the microdilution trays, the trays are incubated at 35° C. for 16-20 hours and then read. […]
MEASURED ATTRIBUTE: MIC (µg/mL)

Here is how some compounds turned out for MIC.
# MOLECULE SMILES, MIC, µg/mL
rows = [
    ("CC[C@H]1OC(=O)[C@H](C)C(=O)[C@H](C)[C@@H](O[C@@H]2O[C@H](C)C[C@H](N(C)C)[C@H]2O)[C@](C)(OC(=O)NCCCc2ccc(-c3ncccn3)cc2)C[C@@H](C)C(=O)[C@H](C)[C@H]2NC(=O)O[C@@]21C", 0.06),
    ("CC[C@H]1OC(=O)[C@H](C)C(=O)[C@H](C)[C@@H](O[C@@H]2O[C@H](C)C[C@H](N(C)C)[C@H]2O)[C@](C)(OC(=O)NC/C=C/c2ccc(-n3cccn3)cc2F)C[C@@H](C)C(=O)[C@H](C)[C@H]2NC(=O)O[C@@]21C", 0.06),
]

[a] CC[C@H]1OC(=O)[C@H](C)C(=O)[C@H](C)[C@@H](O[C@@H]2O[C@H](C)C[C@H](N(C)C)[C@H]2O)[C@](C)(OC(=O)NCc2ccc(-c3ncccn3)cc2F)C[C@@H](C)C(=O)[C@H](C)[C@H]2NC(=O)O[C@@]21C
[b] CC[C@H]1OC(=O)[C@H](C)C(=O)[C@H](C)[C@@H](O[C@@H]2O[C@H](C)C[C@H](N(C)C)[C@H]2O)[C@](C)(OC(=O)NCCN(C)Cc2cnc3ccccc3c2)C[C@@H](C)C(=O)[C@H](C)[C@H]2NC(=O)O[C@@]21C
MIC comparison. Which is larger, a or b ? Could you answer with the label of the item you picked?
b
(b: 0.25 µg/mL, a: 0.06 µg/mL)

* * *

Test system: E. faecalis ATCC29212
RUN DESCRIPTION: MIC, microdilution broth method (NCCLS)
Assay type: cell-based
TEST SETTINGS: C: E. faecalis ATCC29212, 35° C., 16-20 hours
MEASURED ATTRIBUTE: MIC (µg/mL)

Some solved entries appear below for comparison.
# MOLECULE, MIC [µg/mL]
records = [
    ("CC[C@H]1OC(=O)[C@H](C)C(=O)[C@H](C)[C@@H](O[C@@H]2O[C@H](C)C[C@H](N(C)C)[C@H]2O)[C@](C)(OC(=O)NC/C=C/c2ccc(-c3cncnc3)cc2)C[C@@H](C)C(=O)[C@H](C)[C@H]2NC(=O)O[C@@]21C", 0.12),
    ("CCC1OC(=O)C(C)(F)C(=O)C(C)C(OC2OC(C)CC(N(C)C)C2O)C(C)(OC(=O)NCC=Cc2ccccc2)CC(C)C(=NO)C(C)C2NC(=O)OC12C (centres unmarked)", 0.12),
    ("CC[C@H]1OC(=O)[C@H](C)C(=O)[C@H](C)[C@@H](O[C@@H]2O[C@H](C)C[C@H](N(C)C)[C@H]2O)[C@](C)(OC(=O)NC/C=C/c2ccc(-c3nccc(OC)n3)cc2)C[C@@H](C)C(=O)[C@H](C)[C@H]2NC(=O)O[C@@]21C", 0.12),
    ("CC[C@H]1OC(=O)[C@H](C)C(=O)[C@H](C)[C@@H](O[C@@H]2O[C@H](C)C[C@H](N(C)C)[C@H]2O)[C@](C)(OC(=O)NC/C=C/c2ccc(-c3ccccn3)cc2)C[C@@H](C)C(=O)[C@H](C)[C@H]2NC(=O)O[C@@]21C", 0.12),
    ("CCC1OC(=O)C(C)(F)C(=O)C(C)C(OC2OC(C)CC(N(C)C)C2O)C(C)(OC(=O)NCCOCc2ccc(-c3ncccn3)cc2)CC(C)C(=O)C(C)C2NC(=O)OC12C (centres unmarked)", 0.25),
]

[1] CC[C@H]1OC(=O)[C@H](C)C(=O)[C@H](C)[C@@H](O[C@@H]2O[C@H](C)C[C@H](N(C)C)[C@H]2O)[C@](C)(OC(=O)NC/C=C/c2ccc(-n3cccn3)nc2)C[C@@H](C)C(=O)[C@H](C)[C@H]2NC(=O)O[C@@]21C
[2] CC[C@H]1OC(=O)[C@H](C)C(=O)[C@H](C)[C@@H](O[C@@H]2O[C@H](C)C[C@H](N(C)C)[C@H]2O)[C@](C)(OC(=O)NCCN(C)Cc2ccc(-c3ncccn3)cc2)C[C@@H](C)C(=O)[C@H](C)[C@H]2NC(=O)O[C@@]21C
For the pair 1 and 2 , which member has the lower MIC number? Your choice should be expressed through its label.
1
(1: 0.06 µg/mL, 2: 0.5 µg/mL)

Data credit: patent US6613747B2
